Tested on: DMS-273
Test: NCI tumour cell line growth inhibition, 48 h
Activity calls are given as the source filed them. Cut-off read from the data, not from the text of the source: active = GI50 up to about 1.1 µM and inactive = higher.
Metric: GI50

- NC(=O)c1cc(N2CC2)c([N+](=O)[O-])cc1[N+](=O)[O-]: > 100 µM (inactive)
- COc1cc2c(oc(=O)c3c4occc4cc(OC)c23)c2cccc(OCc3ccccc3)c12: 38.9 µM (inactive)
- COc1ccc(C(C#N)NNC(=O)Cc2ccccc2)cc1OC (configuration not stated): > 100 µM (inactive)
- Cc1ccc(S(=O)(=O)c2ccc(NC(=O)SCCC(=O)O)cc2)cc1: > 100 µM (inactive)
- COC(=O)c1ccc(C(=O)OC)c2nc3cc(C)ccc3nc12: > 100 µM (inactive)
- Cc1cccc2[n+]1[C@H]1[C@H]([C@@H]3O[C@H]1c1ccccc13)[S+]([O-])N2 (some centres not stated): 27.2 µM (inactive)
- COC1=C(Br)C(=O)c2nc(C)ccc2C1=O: 17.2 µM (inactive)
- Cn1cc(C(=O)NCCC(=N)N)cc1NC(=O)C1=[N+](C)C=C(NC(=O)c2cccc(C(=O)NC3=CC(C(=O)Nc4cc(C(=O)NCCC(=N)N)cn4C)=[N+](C)C3)c2)C1: 59.8 µM (inactive)
- CC(=O)NC(ON1C(=O)COc2ccccc21)C(Cl)(Cl)Cl (configuration not stated): > 100 µM (inactive)
- C=C(CN(C)C)C(=O)c1cc(C)ccc1C: 11.7 µM (inactive)
- Cc1ccc(C)c(N2C(=O)C(=O)C(c3nc4ccccc4s3)C(=O)C2=O)c1: > 100 µM (inactive)
- Cc1cc(Cl)ccc1NC(=O)CCCC(=O)C1CCC/C1=N\NC(=O)CC#N (configuration not stated): > 100 µM (inactive)

---

Tested on: DMS-273
Assay: NCI tumour cell line growth inhibition, 48 h
The source made the active and inactive calls. Cut-off read from the data, not from the text of the source: active = GI50 up to about 1.1 µM and inactive = higher.
Metric: GI50

* CN(C)C(c1ccccc1)C(O)c1ccccc1 (centres undefined) | > 100 µM (inactive)
* C=CCN(N=O)C(=O)NCCCCC(NC(C)=O)C(=O)NCc1ccccc1 (centres undefined) | > 100 µM (inactive)
* C[C@]12CCC[C@H](OC=O)C1(O)C[C@H](C(=O)O)CC2 (some centres undefined) | > 100 µM (inactive)
* Cc1cc(C)c(N)c(C)c1N | > 100 µM (inactive)

---

Tested on: UACC-62
Test: NCI tumour cell line growth inhibition, 48 h
The source made the active and inactive calls. No stated cut-off is given here; in the data, active = GI50 up to about 1.1 µM and inactive = higher.
Labels: True for active, False for inactive

* COc1cc2c(/C=C3/C(=O)Nc4ccccc43)c(Cl)[nH]c2cc1C | True
* CCC1(c2ccccc2)C(=O)N=C(c2ccccc2)N1CCc1ccccc1 (stereo not given) | False
* O=[N+]([O-])C(=C1Nc2ccccc2N1)/C(Cl)=C(/Cl)N1CCOCC1 | False
* N=C(N)n1nc2c(c1O)CCC2 | False
* O=[N+]([O-])c1ccc(/N=N/c2c(O)ccc3cc(S(=O)(=O)O)cc(S(=O)(=O)O)c23)cc1 | False

---

Tested on: SF-539
Test: NCI tumour cell line growth inhibition, 48 h
Active and inactive are the calls of the source. Cut-off read from the data, not from the text of the source: active = GI50 up to about 1.1 µM and inactive = higher.
Item-by-item account of GI50
Metric: GI50

- CCOC(=O)c1c(N=P(c2ccccc2)(c2ccccc2)c2ccccc2)nnc(-c2ccccc2)c1-c1ccccc1: > 100 µM (inactive)
- O=C1c2ccccc2-c2cc([N+](=O)[O-])c([N+](=O)[O-])cc21: 0.485 µM (active)
- N#C/C(=C\c1c[nH]c2ccccc12)C(=O)c1ccc(O)c(O)c1: 25.6 µM (inactive)
- OCC(CN1CCCCC1)(CN1CCCCC1)CN1CCCCC1: > 100 µM (inactive)
- CC(=O)N1CC[N+](C)(CCCCN2c3ccccc3Sc3cc(N=[N+]=[N-])ccc32)CC1: > 100 µM (inactive)
- OCC1OC(NC(=S)NCCC(F)(F)C(F)(F)C(F)(F)C(F)(F)C(F)(F)C(F)(F)F)C(O)C(O)C1O (stereo unspecified): > 100 µM (inactive)
